Numbers sourced from patent US20240116985A1.

Attribute: IC50
# system.name: full-length beta-Catenin (Uniprot ID P35222) (Homo sapiens)
# Construct: 10 nM full-length beta-Catenin (Uniprot ID P35222)
# test.name: Fluorescence polarization IC50 (beta-catenin / 5FAM-TCF4 10-53 competition)
# Format: binding
# condition: fluorescence polarization; read-out: beta-Catenin FP IC50
# value in nM; strip the unit string

[
  {
    "molecule": "CC(C)C[C@@H]1NC(=O)[C@H](Cc2ccccc2)NC(=O)[C@H](C)NC(=O)[C@H](C)NC(=O)[C@H](CC(=O)O)NC(=O)[C@H](CC(=O)O)NC(=O)C2(CCCC=CCCCOC(=O)N3CC[C@@](C(=O)N[C@@H](Cc4ccccc4)C(=O)N[C@@H](Cc4csc5ccccc45)C(=O)N[C@@H](CCC(N)=O)C(N)=O)(C3)NC1=O)CCCC=CC[C@]1(CCCN1C(=O)CCCN(C)C)C(=O)N[C@@H](CC(=O)O)C(=O)N[C@@H](CC(C)(C)C)C(=O)N2 (stereo partly shown) [I-1359]",
    "system.name": "full-length beta-Catenin (Uniprot ID P35222) (Homo sapiens)",
    "observed.value": 88
  },
  {
    "molecule": "CC(=O)N1CCC[C@]12CC=CCCCC1(CCCC=CCCCCCC[C@@](C)(C(=O)N[C@@H](Cc3ccccc3)C(=O)N[C@@H](Cc3csc4ccccc34)C(=O)N[C@@H](CCC(N)=O)C(N)=O)NC(=O)[C@H](CC(N)=O)NC(=O)[C@H](Cc3ccccc3F)NC(=O)[C@H](C)NC(=O)[C@H](C)NC(=O)[C@H](CCC(=O)O)NC(=O)[C@H](CC(=O)O)NC1=O)NC(=O)[C@H](C)NC(=O)[C@H](CC(=O)O)NC2=O (stereo partly shown) [I-453]",
    "system.name": "full-length beta-Catenin (Uniprot ID P35222) (Homo sapiens)",
    "observed.value": 1550
  },
  {
    "molecule": "CC(=O)N1CCC[C@]12CC=CCCCC1(CCCC=CCCCOC(=O)N3CC[C@@](C(=O)N[C@@H](Cc4ccsc4)C(=O)N[C@@H](Cc4csc5ccccc45)C(=O)N[C@@H](CCC(N)=O)C(N)=O)(C3)NC(=O)[C@H](CC(C)C)NC(=O)[C@H](Cc3ccccc3C#N)NC(=O)[C@H](C)NC(=O)[C@H](C)NC(=O)[C@H](CC(=O)O)NC(=O)[C@H](CC(=O)O)NC1=O)NC(=O)[C@H](CC(C)(C)C)NC(=O)[C@H](CC(=O)O)NC2=O (stereo partly shown) [I-1200]",
    "system.name": "full-length beta-Catenin (Uniprot ID P35222) (Homo sapiens)",
    "observed.value": 99
  },
  {
    "molecule": "CCCc1cn(CCCC[C@@H](NC(=O)[C@H](CO)NC(=O)[C@H](Cc2csc3ccccc23)NC(=O)[C@H](Cc2ccccc2C(F)(F)F)NC(=O)[C@]23CCN(C2)C(=O)OCCCC=CCCCC2(CCCC=CC[C@]4(CCCN4C(C)=O)C(=O)N[C@@H](CC(=O)O)C(=O)N[C@@H](CC(C)(C)C)C(=O)N2)C(=O)N[C@@H](CC(=O)O)C(=O)N[C@@H](Cc2cccc(C(=O)O)c2)C(=O)N[C@@H](C)C(=O)N[C@@H](C)C(=O)N[C@@H](Cc2ccccc2)C(=O)N[C@@H](CC(C)C)C(=O)N3)C(N)=O)nn1 (stereo partly shown) [I-2444]",
    "system.name": "full-length beta-Catenin (Uniprot ID P35222) (Homo sapiens)",
    "observed.value": 121
  },
  {
    "molecule": "CC[C@H](C)[C@@H]1NC(=O)[C@H](CC(=O)O)NC(=O)[C@]2(CC=CCCCC3(CCCC=CCCCCCC[C@@](C)(C(=O)N[C@@H](Cc4ccccc4)C(=O)N[C@@H](Cc4csc5ccccc45)C(=O)N[C@@H](Cc4ccc(O)cc4)C(N)=O)NC(=O)[C@H](CCC(N)=O)NC(=O)[C@H](Cc4ccccc4)NC(=O)[C@H](C)NC(=O)[C@H](C)NC(=O)[C@H](CCC(=O)O)NC(=O)[C@H](CC(=O)O)NC3=O)NC1=O)CCCN2C(C)=O (stereo partly shown) [I-636]",
    "system.name": "full-length beta-Catenin (Uniprot ID P35222) (Homo sapiens)",
    "observed.value": 198
  }
]

The recorded IC50 for entry CC(=O)N1CCC[C@]12CC=CCCCC1(CCCC=CCCCCOC(=O)N3CC(C(=O)N[C@@H](Cc4ccsc4)C(=O)N[C@@H](Cc4csc5ccccc45)C(=O)N[C@@H](CCC(N)=O)C(N)=O)(C3)NC(=O)[C@H](CC(C)C)NC(=O)[C@H](Cc3ccccc3)NC(=O)[C@H](C)NC(=O)[C@H](C)NC(=O)[C@H](Cc3cccc(C(=O)O)c3)NC(=O)[C@H](CC(=O)O)NC1=O)NC(=O)[C@H](CC(C)(C)C)NC(=O)[C@H](CC(=O)O)NC2=O (stereo partly shown) [I-2612] equals 85

Form: molecule = CC(=O)N1CCC[C@]12CC=CCCCC1(CCCC=CCCCCOC(=O)N3CCC(C(=O)N[C@@H](Cc4ccccc4C(F)(F)F)C(=O)N[C@@H](Cc4csc5ccccc45)C(=O)N[C@@H](CCC(N)=O)C(N)=O)(CC3)NC(=O)[C@H](CC(C)C)NC(=O)[C@H](Cc3ccccc3)NC(=O)[C@H](C)NC(=O)[C@H](C)NC(=O)[C@H](Cc3cccc(C(=O)O)c3)NC(=O)[C@H](CC(=O)O)NC1=O)NC(=O)[C@H](CC(C)(C)C)NC(=O)[C@H](CC(=O)O)NC2=O (stereo partly shown) [I-2583] ; IC50 = 224

The molecule CC(=O)N1CCC[C@H]1C(=O)N[C@@H](CC(=O)O)C(=O)N[C@@H](CC(C)(C)C)C(=O)N[C@]1(C)CCCCCCCCOC(=O)N2CC[C@@](C(=O)N[C@@H](Cc3ccsc3)C(=O)N[C@@H](Cc3csc4ccccc34)C(=O)N[C@@H](CCC(N)=O)C(N)=O)(C2)NC(=O)[C@H](CC(C)C)NC(=O)[C@H](Cc2ccccc2)NC(=O)[C@H](C)NC(=O)[C@H](C)NC(=O)[C@H](CC(=O)O)NC(=O)[C@H](CC(=O)O)NC1=O [I-1810] showed IC50 equal to 416

// field: IC50; key: CC(=O)N1CCC[C@]12CC=CCCCC1(CCCC=CCCCCCC[C@@](C)(C(=O)N[C@@H](Cc3ccccc3)C(=O)N[C@@H](Cc3csc4ccccc34)C(=O)N[C@@H](CCC(N)=O)C(N)=O)NC(=O)[C@H](CC(C)C)NC(=O)[C@H](Cc3ccccc3)NC(=O)[C@H](C)NC(=O)[C@H](C)NC(=O)[C@H](CCC(=O)O)NC(=O)[C@H](CC(=O)O)NC1=O)NC(=O)[C@H](CCO)NC(=O)[C@H](CC(=O)O)NC2=O (stereo partly shown) [I-1546] ; value = 71

Entry under test: CCCC[C@@H]1NC(=O)[C@H](Cc2cccc(C(=O)O)c2)NC(=O)[C@H](CC(=O)O)NC(=O)C2(CCCC=CCCCOC(=O)N3CC[C@@](C(=O)N[C@@H](Cc4ccccc4Cl)C(=O)N[C@@H](Cc4csc5ccccc45)C(=O)N[C@@H](CCC(N)=O)C(N)=O)(C3)NC(=O)[C@H](CC(C)C)NC(=O)[C@H](Cc3ccccc3)NC(=O)CNC1=O)CCCC=CC[C@]1(CCCN1C(C)=O)C(=O)N[C@@H](CC(=O)O)C(=O)N[C@@H](CC(C)(C)C)C(=O)N2 (stereo partly shown) [I-1688] . Its IC50 was 59

---

# system.name: full-length beta-Catenin (Uniprot ID P35222) (Homo sapiens, UniProt P35222)
# Construct: 10 nM full-length beta-Catenin (Uniprot ID P35222)
# Sequence (P35222 whole entry): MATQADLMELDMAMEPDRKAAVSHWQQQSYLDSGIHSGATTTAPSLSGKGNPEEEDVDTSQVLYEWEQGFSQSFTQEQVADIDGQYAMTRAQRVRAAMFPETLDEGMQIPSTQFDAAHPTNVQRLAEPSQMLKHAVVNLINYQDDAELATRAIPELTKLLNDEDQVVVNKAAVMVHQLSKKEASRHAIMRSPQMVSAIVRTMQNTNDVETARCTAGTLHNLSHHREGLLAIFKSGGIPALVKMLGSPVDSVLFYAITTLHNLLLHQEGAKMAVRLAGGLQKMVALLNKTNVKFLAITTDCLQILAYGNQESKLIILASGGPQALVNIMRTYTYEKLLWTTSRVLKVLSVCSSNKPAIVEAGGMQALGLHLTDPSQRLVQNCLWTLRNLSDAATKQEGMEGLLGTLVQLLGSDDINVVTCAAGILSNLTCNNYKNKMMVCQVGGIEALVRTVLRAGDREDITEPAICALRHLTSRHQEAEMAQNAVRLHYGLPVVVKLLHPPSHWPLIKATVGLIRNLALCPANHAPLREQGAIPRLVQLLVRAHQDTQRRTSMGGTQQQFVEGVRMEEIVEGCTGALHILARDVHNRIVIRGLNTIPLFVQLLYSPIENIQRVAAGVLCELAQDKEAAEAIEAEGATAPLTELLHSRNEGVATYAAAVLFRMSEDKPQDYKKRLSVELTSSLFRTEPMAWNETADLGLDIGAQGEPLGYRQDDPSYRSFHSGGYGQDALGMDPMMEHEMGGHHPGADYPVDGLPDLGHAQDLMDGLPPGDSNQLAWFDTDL
# test.name: Fluorescence polarization IC50 (beta-catenin / 5FAM-TCF4 10-53 competition)
# Assay type: binding
# condition: fluorescence polarization; read-out: beta-Catenin FP IC50
A collection of compounds and their measured pIC50
To interpret pIC50, take it as minus log10 of a concentration measured in moles per litre.

Use these answered entries as a reference point.
[
  {
    "compound": "CC[C@H](C)[C@@H]1NC(=O)[C@H](CC(=O)O)NC(=O)[C@]2(CC=CCCCC3(CCCC=CCCCCCC[C@@](C)(C(=O)N[C@@H](Cc4ccccc4)C(=O)N[C@@H](Cc4csc5ccccc45)C(=O)N[C@@H](CC(C)C)C(N)=O)NC(=O)[C@H](CCC(N)=O)NC(=O)[C@H](Cc4ccccc4)NC(=O)[C@H](C)NC(=O)[C@H](C)NC(=O)[C@H](CCC(=O)O)NC(=O)[C@H](CC(=O)O)NC3=O)NC1=O)CCCN2C(C)=O (stereo partly drawn)",
    "pIC50": 6.37
  },
  {
    "compound": "CC(=O)N1CCC[C@]12CC=CCCCC1(CCCC=CCCCCCC[C@@](C)(C(=O)N[C@@H](Cc3ccccc3)C(=O)N[C@@H](Cc3csc4ccccc34)C(=O)N[C@@H](CCC(N)=O)C(N)=O)NC(=O)[C@H](C(C)C)NC(=O)[C@H](CC3CCCC3)NC(=O)[C@H](C)NC(=O)[C@H](C)NC(=O)[C@H](CCC(=O)O)NC(=O)[C@H](CC(=O)O)NC1=O)NC(=O)[C@H](C)NC(=O)[C@H](CC(=O)O)NC2=O (stereo partly drawn)",
    "pIC50": 5.30
  }
]

Now for another entry.
pIC50 measured on CC(=O)N1CCC[C@]12CC=CCCCC1(CCCC=CCCCOC(=O)N3CC[C@@](C(=O)N[C@@H](Cc4ccsc4)C(=O)N[C@@H](Cc4csc5ccccc45)C(=O)N[C@@H](CCC(N)=O)C(N)=O)(C3)NC(=O)[C@H]([C@@H](C)O)NC(=O)[C@H](Cc3ccccc3)NC(=O)[C@H](C)NC(=O)[C@H](C)NC(=O)[C@H](Cc3cccc(C(=O)O)c3)NC(=O)[C@H](CC(N)=O)NC1=O)NC(=O)[C@H](CC(C)(C)C)NC(=O)[C@H](CC(=O)O)NC2=O (stereo partly drawn) = 7.72
